measured.target: MBP-FoxP1dN (Mus musculus, UniProt P58462 326-579)
Sequence: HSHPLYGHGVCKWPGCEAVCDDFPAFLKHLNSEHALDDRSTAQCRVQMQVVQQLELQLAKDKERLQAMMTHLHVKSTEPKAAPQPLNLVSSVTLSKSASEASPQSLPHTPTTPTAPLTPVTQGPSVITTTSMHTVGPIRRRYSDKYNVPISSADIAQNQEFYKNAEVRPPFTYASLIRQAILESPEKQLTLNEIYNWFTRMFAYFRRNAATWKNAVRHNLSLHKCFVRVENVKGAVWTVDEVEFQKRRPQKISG
test.name: PD-seq (MBP pull-down with sequencing); 20 mM Tris-HCl pH 7.5, 100 mM NaCl, 1.5 mM MgCl2, 0.4 uM protein, 0.1 uM dsDNA library, 30 min, room temperature, amylose pull-down; high values mean tight binding
assay.setup: protein: recombinant; tags: His6-MBP; chain copies: 2; dsDNA, one strand shown
The full ranking holds about 16,000 sequences; the median of “rpm ratio (pull-down/input)” is about 0.94, and the highest 2% start at about 1.7. The list comes from a sample in which the highest values are over-represented; it also holds close analogues and randomly drawn sequences.
reported.metric: binding signal

Check out these entries, answers already filled in.
- biosequence: "GATGATTGTTCTCCCAGCTGATGAATTATTTATCTCGAGTAAACAAATTTTCCTAATCTTTCTGTTCAAGCGCCATCTAC"
  observed.value: "1.76 RPM ratio (pull-down/input)"
- biosequence: "GATGATTGTTCTCCCAGCTGATGAATTAAGATGATCGAGTAAACAAATTTTCCTAATCTTTCTGTTCAAGCGCCATCTAC"
  observed.value: "0.992 RPM ratio (pull-down/input)"
- biosequence: "GATGATTGTTCTCCCAGCTGATGAATTAGCGCACTCGAGTAAACAAATTTTCCTAATCTTTCTGTTCAAGCGCCATCTAC"
  observed.value: "0.88 RPM ratio (pull-down/input)"

Reported binding signal of GATGATTGTTCTCCCAGCTGATGAATTTTATTGATCGAGTAAACAAATTTTCCTAATCTTTCTGTTCAAGCGCCATCTAC : 2.45 RPM ratio (pull-down/input)

---

measured.target: MBP-FoxP1dN (Mus musculus, UniProt P58462 326-579)
Sequence: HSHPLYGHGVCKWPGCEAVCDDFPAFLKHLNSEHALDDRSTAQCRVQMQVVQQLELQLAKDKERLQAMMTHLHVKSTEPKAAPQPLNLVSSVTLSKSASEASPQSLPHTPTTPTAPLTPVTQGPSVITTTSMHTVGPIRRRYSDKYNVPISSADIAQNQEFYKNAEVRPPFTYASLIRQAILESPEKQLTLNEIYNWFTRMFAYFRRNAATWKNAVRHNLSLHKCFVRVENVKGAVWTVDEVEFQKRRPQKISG
test.name: PD-seq (MBP pull-down with sequencing); 20 mM Tris-HCl pH 7.5, 100 mM NaCl, 1.5 mM MgCl2, 0.4 uM protein, 0.1 uM dsDNA library, 30 min, room temperature, amylose pull-down; high values mean tight binding
assay.setup: protein: recombinant; tags: His6-MBP; chain copies: 2; dsDNA, one strand shown
The full ranking holds about 16,000 sequences; the median of “rpm ratio (pull-down/input)” is about 0.94, and the highest 2% start at about 1.7. The sample as a whole holds a higher share of the highest values than the screen did.
reported.metric: binding signal

- biosequence: "GATGATTGTTCTCCCAGCTGATGAATTGACACAATCGAGTAAACAAATTTTCCTAATCTTTCTGTTCAAGCGCCATCTAC"
  observed.value: "1.75 RPM ratio (pull-down/input)"
- biosequence: "GATGATTGTTCTCCCAGCTGATGAATTAGTGTCGTCGAGTAAACAAATTTTCCTAATCTTTCTGTTCAAGCGCCATCTAC"
  observed.value: "0.949 RPM ratio (pull-down/input)"
- biosequence: "GATGATTGTTCTCCCAGCTGATGAATTAGTAGTGTCGAGTAAACAAATTTTCCTAATCTTTCTGTTCAAGCGCCATCTAC"
  observed.value: "1 RPM ratio (pull-down/input)"

Reported binding signal of GATGATTGTTCTCCCAGCTGATGAATTGGTTGGTTCGAGTAAACAAATTTTCCTAATCTTTCTGTTCAAGCGCCATCTAC : 1 RPM ratio (pull-down/input)
